- ASSAYED_SYSTEM: recombinant human TFPI (tissue factor pathway inhibitor) (human, UniProt P10646 29-304)
- EXPERIMENT: cell-based or functional assay
The following binders are listed with their measured FXa assay OD, 20 nM Ab, 10 nM TFPI values.
Returns: the value as a bare number; no unit string appended.

Solved cases (2 shown):
BINDER	NUMERIC_VALUE
clone 1001 (antibody, V domains shown) VH: EVQLVESGGGLVKPGGSLRLSCAASGFTFSSYAMNWVRQAPGKGLEWVSTITTGGSYTYYADSVDGRFTISRDNAKNSLYLQMNSLRAEDTAVYYCARQDGNFLMDYWGQGTLVTVSS VL: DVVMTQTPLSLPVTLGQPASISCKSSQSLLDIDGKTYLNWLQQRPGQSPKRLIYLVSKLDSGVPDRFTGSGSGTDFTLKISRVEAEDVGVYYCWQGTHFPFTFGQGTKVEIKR	0.357
clone 1024 (antibody, V domains shown) VH: EVQLVESGGGLVKPGGSLRLSCAASGFTFSSYAMSWVRQAPGKGLEWVSTITTGGSYTYYADSVDGRFTISRDNAKNSLYLQMNSLRAEDTAVYYCARQDGNFLMDYWGQGTLVTVSS VL: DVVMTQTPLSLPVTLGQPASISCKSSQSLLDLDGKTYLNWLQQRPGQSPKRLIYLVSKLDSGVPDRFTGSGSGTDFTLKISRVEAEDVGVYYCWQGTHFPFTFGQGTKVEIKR	0.206

# binder clone 1104 (antibody, V domains shown) VH: EVQLVESGGGLVKPGGSLRLSCAASGFTFSSYAMNWVRQAPGKGLEWVGTITTGGSHTYYADSVQGRFTISRDNAKNSLYLQMNSLRAEDTAVYYCARQDGNFLMDYWGQGTLVTVSS VL: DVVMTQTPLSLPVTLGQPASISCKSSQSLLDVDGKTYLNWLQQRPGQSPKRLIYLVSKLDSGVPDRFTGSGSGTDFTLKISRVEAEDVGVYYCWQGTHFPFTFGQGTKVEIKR ; its FXa assay OD, 20 nM Ab, 10 nM TFPI = 0.335
